Tested on: HepG2
Assay: Cytotoxicity against human HepG2 cells assessed as inhibition of cell growth at 10 uM measured after 24 hrs by MTT assay (reference value: 0.21%)
Type: functional
Class membership depends on inhibition at 10 µM alone; the intervals are low interval: < 20%; middle interval: ≥ 20% and < 30%; high interval: ≥ 30%

Take a look at these entries with their results.
1) CC(C)c1nc(N(C)S(C)(=O)=O)nc(-c2ccc(F)cc2)c1COCc1cc2ccc(F)cc2c(=O)o1
high interval
2) CC(C)c1nc(N(C)S(C)(=O)=O)nc(-c2ccc(F)cc2)c1COC/C=C1\OC(=O)c2cccc(Cl)c21
middle interval
3) CC(C)c1nc(N(C)S(C)(=O)=O)nc(-c2ccc(F)cc2)c1COCc1cc2ccc(Cl)cc2c(=O)o1
middle interval

Kindly state the category for this molecule: CC(C)c1nc(N(C)S(C)(=O)=O)nc(-c2ccc(F)cc2)c1COC/C=C1\OC(=O)c2cc(F)ccc21
middle interval

Please classify: Cc1ccc2c(c1C)/C(=C/COCc1c(-c3ccc(F)cc3)nc(N(C)S(C)(=O)=O)nc1C(C)C)OC2=O
middle interval

Could you tell me which band Cc1cc(Cl)cc2c1/C(=C/COCc1c(-c3ccc(F)cc3)nc(N(C)S(C)(=O)=O)nc1C(C)C)OC2=O belongs to?
low interval

Assign a category based on measured inhibition at 10 µM for CC(C)c1nc(N(C)S(C)(=O)=O)nc(-c2ccc(F)cc2)c1COC/C=C1\OC(=O)c2ccc(Cl)cc21 and give only the class name.
low interval

Which bin, given its inhibition at 10 µM, does COc1cc2c(cc1OC)/C(=C/COCc1c(-c3ccc(F)cc3)nc(N(C)S(C)(=O)=O)nc1C(C)C)OC2=O occupy?
high interval

Ref: ChEMBL document CHEMBL4706498
